tested on: Human immunodeficiency virus type 1 protease (Human immunodeficiency virus 1)
assay explanation: In vitro inhibition of HIV-1 protease
pIC50: −log10 of the molar value.
endpoint label: pIC50

smiles input | pIC50
C=CC[C@H](C[C@H](O)[C@H](Cc1ccccc1)NC(=O)OC(C)(C)C)C(=O)N[C@H]1c2ccccc2C[C@H]1O | 7.56
COC(=O)[C@@H]1Cc2ccccc2[C@@H]1NC(=O)[C@H](Cc1ccccc1)C[C@H](O)[C@H](Cc1ccccc1)NC(=O)OC(C)(C)C | 7.18
CC(C)(C)OC(=O)N[C@@H](Cc1ccccc1)[C@@H](O)C[C@@H](Cc1ccccc1)C(=O)N[C@H]1CCCC[C@H]1O | 6.91
CC(C)(C)OC(=O)N[C@@H](Cc1ccccc1)[C@@H](O)C[C@@H](Cc1ccccc1)C(=O)N[C@H](CO)Cc1ccccc1 | 6.16
CC(C)(C)OC(=O)N[C@@H](Cc1ccccc1)[C@@H](O)C[C@@](C)(Cc1ccccc1)C(=O)N[C@H]1c2ccccc2C[C@H]1O | 8.11
CC(C)(C)OC(=O)N[C@@H](Cc1ccccc1)[C@@H](O)C[C@@H](Cc1ccccc1)C(=O)N[C@@]1(C)c2ccccc2C[C@H]1O | 6.67
CC(C)(C)OC(=O)N[C@@H](Cc1ccccc1)[C@@H](O)C[C@@H](Cc1ccccc1)C(=O)N[C@H]1c2ccccc2CC[C@H]1O | 9.15
CC(C)(C)OC(=O)N[C@@H](Cc1ccccc1)[C@@H](O)CCC(=O)N[C@H]1c2ccccc2C[C@H]1O | 5.53
CC(C)[C@H](NC(=O)[C@H](Cc1ccccc1)C[C@H](O)[C@H](Cc1ccccc1)NC(=O)OC(C)(C)C)C(=O)O | 6.79
CC(C)(C)OC(=O)N[C@@H](Cc1ccccc1)[C@@H](O)C[C@@H](Cc1ccccc1)C(=O)NCC1CCCCC1 | 4.52

1: C[C@@H](NC(=O)[C@H](Cc1ccccc1)C[C@H](O)[C@H](Cc1ccccc1)NC(=O)OC(C)(C)C)C1CCCCC1
2: CC(C)(C)OC(=O)N[C@@H](Cc1ccccc1)[C@@H](O)C[C@@H](Cc1ccc(C(C)(C)C)cc1)C(=O)N[C@H]1c2ccccc2C[C@H]1O
Input: For 1 and 2 , which recorded pIC50 is lower? Please reply using the label of the selected record.
Output: 1
(1: 6.84, 2: 9.77)

A: CC(C)(C)OC(=O)N[C@@H](Cc1ccccc1)[C@@H](O)C[C@@H](Cc1ccccc1)C(=O)N[C@H](CO)c1ccccc1
B: CC(C)(C)OC(=O)N[C@@H](Cc1ccccc1)[C@@H](O)C[C@@H](Cc1ccccc1)C(=O)NCc1ccccc1
C: CC(C)(C)OC(=O)N[C@@H](Cc1ccccc1)[C@@H](O)C[C@@H](Cc1ccccc1)C(=O)N[C@H]1C=CC[C@H]1O
D: CC(C)(C)OC(=O)N[C@@H](Cc1ccccc1)[C@@H](O)C[C@@H](CCCc1ccccc1)C(=O)N[C@H]1c2ccccc2[C@@H](O)[C@H]1O
Input: Please order the records by their reported pIC50, lowest number first. Please list each label once, in the requested order.
Output: B, A, C, D

----------
tested on: Human immunodeficiency virus type 1 protease (Human immunodeficiency virus 1, UniProt Q72874)
assay explanation: Inhibition of HIV-1 protease was determined in vitro
pIC50: −log10 of the molar value.
endpoint label: pIC50

Previously resolved entries follow.
molecule | pIC50
CC(C)(C)NC(=O)[C@@H]1C[C@@H]2CCCC[C@@H]2CN1CC(O)[C@H](Cc1ccccc1)NC(=O)OC(C)(C)C (some centres not stated) | 5.52
CC(C)(C)NC(=O)[C@@H]1C[C@@H]2CCCC[C@@H]2CN1CC(O)CN1C[C@H]2CCCC[C@H]2C[C@H]1C(=O)NC(C)(C)C | 5.17
CC(C)(C)OC(=O)N[C@@H](Cc1ccccc1)[C@@H](O)C[C@]1(Cc2ccccc2)CCCN([C@H]2c3ccccc3C[C@H]2O)C1=O | 5.90
CC(C)(C)OC(=O)N[C@@H](Cc1ccccc1)[C@H](O)CN[C@@H](Cc1ccccc1)C(=O)N[C@H]1c2ccccc2C[C@H]1O | 6.64
CC(C)(C)OC(=O)N[C@@H](Cc1ccccc1)[C@@H](O)[C@H](O)[C@H](Cc1ccccc1)NC(=O)OC(C)(C)C | 5.86
CC(C)(C)OC(=O)CN(Cc1ccccc1)C[C@@H](O)[C@H](Cc1ccccc1)NC(=O)OC(C)(C)C | 5.33

1: CC(C)(C)OC(=O)N[C@@H](Cc1ccc(O)cc1)[C@@H](O)[C@@H]1CCC[C@H]1C(=O)NCc1ccccc1
2: CC(C)(C)NC(=O)[C@@H]1C[C@@H]2CCCC[C@@H]2CN1C[C@@H](O)C[C@@H](Cc1ccccc1)C(=O)N[C@H]1c2ccccc2C[C@H]1O
3: CC(C)[C@H](NC(=O)[C@H](Cc1ccccc1)C[C@H](O)CN1C[C@H]2CCCC[C@H]2C[C@H]1C(=O)NC(C)(C)C)C(=O)Nc1ccc2ccccc2n1
4: O=C(N[C@H]1c2ccccc2C[C@H]1O)[C@H](Cc1ccccc1)CC(O)C[C@@H](Cc1ccccc1)C(=O)N[C@H]1c2ccccc2C[C@H]1O
5: CC(C)(C)OC(=O)N[C@@H](Cc1ccccc1)[C@@H](O)/C=C(/Cc1ccccc1)C(=O)N[C@H]1c2ccccc2C[C@H]1O
Input: Please order the records by their reported pIC50, lowest number first. Please list each label once, in the requested order.
Output: 1, 3, 2, 5, 4

----------
tested on: Human immunodeficiency virus type 1 protease (Human immunodeficiency virus 1)
assay explanation: In vitro inhibition of HIV-1 protease
endpoint label: IC50 (nM)

Previously resolved entries follow.
smiles input | tested on | unit | IC50
CC(C)(C)OC(=O)N[C@@H](Cc1ccccc1)[C@@H](O)C[C@@H](Cc1ccccc1)C(=O)N[C@@H]1CCc2ccccc21 | Human immunodeficiency virus type 1 protease (Human immunodeficiency virus 1) | nM | 34.2
CC(C)(C)OC(=O)N[C@@H](Cc1ccccc1)[C@@H](O)C[C@@H](Cc1ccccc1)C(=O)N[C@@H]1c2ccccc2OC[C@@H]1O | Human immunodeficiency virus type 1 protease (Human immunodeficiency virus 1) | nM | 40.5
CC(C)(C)OC(=O)N[C@@H](Cc1ccccc1)[C@@H](O)C[C@@H](CSc1ccccc1)C(=O)N[C@H]1c2ccccc2C[C@H]1O | Human immunodeficiency virus type 1 protease (Human immunodeficiency virus 1) | nM | 0.25

1: CC(C)(C)OC(=O)N[C@@H](Cc1ccccc1)[C@@H](O)C[C@@H](Cc1ccncc1)C(=O)N[C@H]1c2ccccc2C[C@H]1O
2: CC(C)(C)OC(=O)N[C@@H](Cc1ccccc1)[C@@H](O)C[C@@H](CC(=O)c1ccccc1)C(=O)N[C@H]1c2ccccc2C[C@H]1O
Input: For 1 and 2 , which recorded IC50 is lower? Please reply using the label of the selected record.
Output: 1
(1: 0.53 nM, 2: 5.42 nM)
